The values you see were collected from patent US11485708B2.

Reported pIC50 values for a set of compounds
- Target under test: human PD-L1 / Human PD-1 (Homo sapiens (Human), UniProt Q9NZQ7)
- Sequence (Q9NZQ7 19-239): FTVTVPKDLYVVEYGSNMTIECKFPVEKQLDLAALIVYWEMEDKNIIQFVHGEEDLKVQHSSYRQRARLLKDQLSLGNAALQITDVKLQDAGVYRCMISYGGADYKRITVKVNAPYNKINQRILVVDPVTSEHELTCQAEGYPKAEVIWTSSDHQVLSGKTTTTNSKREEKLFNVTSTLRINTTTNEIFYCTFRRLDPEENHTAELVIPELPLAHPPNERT
- Protocol description: Enzyme-Linked Immunosorbent Assay (ELISA), PD-1/PD-L1 binding
- Condition details: plates coated with human PD-L1, biotinylated human PD-1 added
pIC50: −log10 of the molar value.

Example entries and their recorded answers appear below.
Cc1c(OCCCN2[C@H](C)CC[C@H]2C)cccc1-c1cccc(-c2ccc3c(c2)CCNC3)c1C	> 6.00
Cc1c(OCCCN2[C@H](C)CC[C@H]2C)cccc1-c1cccc(-c2ccc(CN(C)C)cc2)c1C	> 6.00
COc1cc(-c2cccc(-c3cc(F)c(CN)c(OC)c3)c2C)ccc1F	5.00 to 6.00

// moving on: another record for pIC50
// query Entry `COc1cc(-c2cccc(-c3cccc(-c4cc(F)c(CNCCCCO)c(OC)c4)c3C)c2C)cc(F)c1CNCCCCO` needs its pIC50 filled in; supply it.
// result > 6.00
